Experiment: Microsomal stability in human liver microsomes assessed as intrinsic clearance
Assay type: ADME, Microsome
Cond: read-out: CLH
Dear colleague, classification is by CLint scaled, with ranges listed here: A (below 20 mL/min/kg), B (20 mL/min/kg to below 40 mL/min/kg), C (40 mL/min/kg or more)

Below are worked cases with known answers.
Structure	Answer Label
C[C@@H](C(=O)N1CCNC(C)(C)C1)N1CCC(n2c(=O)[nH]c3ccccc32)CC1	A
C[C@@H](CN1CCC(n2c(=O)oc3ccccc32)CC1)NC(=O)c1ccc(F)cc1	B
C[C@@H](CN1CCC2(CC1)NC(=O)Nc1ccccc12)NC(=O)c1ccc(F)cc1	A
C[C@@H](CN1CCC2(CC1)OC(=O)NC[C@H]2c1cccc(F)c1)NC(=O)c1ccc(F)cc1	B
C[C@@H]1CNCCN1C(=O)[C@H](C)N1CCC(n2c(=O)[nH]c3ccccc32)CC1	A

Category of C[C@@H]1CN(C(=O)[C@H](C)N2CCC(n3c(=O)[nH]c4ccccc43)CC2)CCN1 :
A

Category of C[C@@H](CN1CCC2(CC1)CC(=O)Nc1ccccc12)NC(=O)c1ccc(F)cc1 :
B
